target: UniProt Q02769
Sequence (Q02769 whole entry): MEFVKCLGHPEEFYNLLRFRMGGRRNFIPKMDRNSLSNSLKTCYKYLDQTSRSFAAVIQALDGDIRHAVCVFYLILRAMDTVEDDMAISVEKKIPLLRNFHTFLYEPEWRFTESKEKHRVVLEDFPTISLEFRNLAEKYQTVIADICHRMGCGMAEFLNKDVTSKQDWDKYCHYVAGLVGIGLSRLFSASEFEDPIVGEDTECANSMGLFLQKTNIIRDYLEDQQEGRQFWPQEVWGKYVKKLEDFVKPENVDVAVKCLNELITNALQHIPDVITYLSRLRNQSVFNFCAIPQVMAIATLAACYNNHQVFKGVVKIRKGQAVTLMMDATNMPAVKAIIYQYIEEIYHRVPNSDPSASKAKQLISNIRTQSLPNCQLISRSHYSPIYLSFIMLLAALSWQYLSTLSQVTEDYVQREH
test_description: Inhibition of rat liver squalene synthase by liqiud scintillation counting

{"compound": "CCCCCCCCCC(=O)O[C@@H]1[C@@H](O)[C@@]2(CCCC(OC(C)=O)C(C)C/C=C/c3ccccc3)O[C@H](C(=O)O)[C@@](O)(C(=O)O)[C@]1(C(=O)O)O2 (stereo partly specified) [ZARAGOZIC ACID D2]", "IC50 (nM)": 2}

###

test_description: Inhibition of bovine Ras FPTase
Parameters: species or system Bos taurus

{"molecule": "C/C=C/CCCC/C=C/CCCCC(=O)O[C@@H]1[C@@H](O)[C@@]2(CCC(C)C(O)C(C)C/C=C/c3ccccc3)O[C@H](C(=O)O)[C@@](O)(C(=O)O)[C@]1(C(=O)O)O2 (stereo not given in full)", "IC50": "1000 nM"}
{"molecule": "CCCCCCCCCC(=O)O[C@@H]1[C@@H](O)[C@@]2(CCCC(OC(C)=O)C(C)C/C=C/c3ccccc3)O[C@H](C(=O)O)[C@@](O)(C(=O)O)[C@]1(C(=O)O)O2 (stereo not given in full) [ZARAGOZIC ACID D2]", "IC50": "100 nM"}
{"molecule": "C=C(CC[C@]12O[C@H](C(=O)O)[C@@](O)(C(=O)O)[C@](C(=O)O)(O1)[C@H](OC(=O)/C=C/[C@@H](C)C[C@@H](C)CC)[C@H]2O)[C@@H](OC(C)=O)[C@H](C)Cc1ccccc1", "IC50": "250 nM"}
{"molecule": "CC(=O)O[C@H](CCC[C@]12O[C@H](C(=O)O)[C@@](O)(C(=O)O)[C@](C(=O)O)(O1)[C@H](OC(=O)CC/C=C/[C@H](C)CCCc1ccccc1)[C@H]2O)[C@H](C)Cc1ccccc1", "IC50": "150 nM"}
{"molecule": "CCCCCCCC(=O)O[C@@H]1[C@@H](O)[C@@]2(CCCC(OC(C)=O)C(C)C/C=C/c3ccccc3)O[C@H](C(=O)O)[C@@](O)(C(=O)O)[C@]1(C(=O)O)O2 (stereo not given in full)", "IC50": "100 nM"}
